Biological target: P2X4 receptor (Homo sapiens, UniProt Q99571)
Sequence (Q99571 1-388): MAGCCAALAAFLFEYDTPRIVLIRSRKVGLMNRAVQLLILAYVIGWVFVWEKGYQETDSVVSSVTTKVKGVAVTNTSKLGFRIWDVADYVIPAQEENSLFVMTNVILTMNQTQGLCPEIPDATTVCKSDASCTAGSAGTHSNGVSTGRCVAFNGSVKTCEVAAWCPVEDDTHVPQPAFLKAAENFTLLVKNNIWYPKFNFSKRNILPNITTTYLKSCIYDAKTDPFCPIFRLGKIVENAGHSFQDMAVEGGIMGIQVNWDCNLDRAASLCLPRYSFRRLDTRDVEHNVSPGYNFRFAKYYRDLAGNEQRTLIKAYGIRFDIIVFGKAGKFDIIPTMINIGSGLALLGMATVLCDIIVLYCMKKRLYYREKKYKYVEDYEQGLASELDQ
Test: P2X4 antagonism study by measurement of intracellular Ca2+ influx response
Conditions: 1321N1 cells stably expressing human P2X4; 1 μM ATP; compound 15 min before ATP; Fura-2 F340/F380; read-out: Inhibitory activity: IC50
Structures can show the parent of a compound that is named as a salt.
ENDPOINT_NAME: IC50 (µM)
Numbers only, in µM.

// solved cases for IC50 follow
molecule="CC(C)c1ccc(N2CCNCC2COc2ccc(S(N)(=O)=O)cc2)cc1 (stereo not shown) [Example 15, hydrochloride]" test_system="P2X4 receptor (Homo sapiens, UniProt Q99571)" endpoint_name=IC50 scale_unit=µM observed_measurement=6.3
molecule="CC(C)NS(=O)(=O)c1ccc(OCC2CNCCN2c2ccc(C(C)C)cc2)cc1 (stereo not shown) [Example 16, hydrochloride]" test_system="P2X4 receptor (Homo sapiens, UniProt Q99571)" endpoint_name=IC50 scale_unit=µM observed_measurement=2.8

I would be grateful if you could provide IC50 for each of the following entries.
1. Cc1cc(C)c(N2CCNCC2COc2ccc(Cl)cc2)c(C)c1 (stereo not shown) [Example 7, hydrochloride]
2. CC(C)c1cccc(N2CCNCC2COc2ccc(Cl)cc2)c1 (stereo not shown) [Example 3, hydrochloride]
3. CC(C)c1ccc(N2CCNCC2COc2ccc(Cl)cc2)cc1 (stereo not shown) [Example 1, hydrochloride]
4. CC(C)c1cccc(N2CCNCC2COc2ccc(OC(C)(C)C)cc2)c1 (stereo not shown) [Example 13, hydrochloride]
5. Clc1ccc(OCC2CNCCN2c2ccc3c(c2)CCC3)cc1 (stereo not shown) [Example 10, hydrochloride]

Result:
3.1
8.3
6.9
2.9
4.7

State the recorded IC50 for every item in the following list.
1. CC(C)c1ccc(N2CCNCC2COc2ccc3c(c2)OCO3)cc1 (stereo not shown) [Example 11, hydrochloride]
2. CC(C)c1ccc(N2CCNCC2CSc2ccc(Cl)cc2)cc1 (stereo not shown) [Example 17, hydrochloride]
3. CCCc1ccc(N2CCNCC2COc2ccc(Cl)cc2)cc1 (stereo not shown) [Example 2, hydrochloride]

Result:
[7.4, 8.1, 7.6]
